# system under test: mouse CD38 (Mus musculus)
# Sequence (P56528 whole entry): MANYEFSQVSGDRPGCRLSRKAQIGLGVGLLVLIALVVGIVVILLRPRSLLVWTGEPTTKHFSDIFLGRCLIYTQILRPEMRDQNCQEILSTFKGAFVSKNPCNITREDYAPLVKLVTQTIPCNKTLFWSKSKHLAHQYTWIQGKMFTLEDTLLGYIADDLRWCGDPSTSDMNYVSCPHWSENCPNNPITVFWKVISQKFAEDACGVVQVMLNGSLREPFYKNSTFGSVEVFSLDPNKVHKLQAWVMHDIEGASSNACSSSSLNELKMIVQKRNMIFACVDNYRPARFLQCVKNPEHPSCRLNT
# experimental details: NAD+ cyclase activity assay with mouse recombinant CD38 protein (ε-NAD fluorescence)
# test parameters: 0.6 nM mouse CD38, substrate ε-NAD, 30 min preincubation, fluorescence 300/410 nm
pIC50: −log10 of the molar value.
Examples of molecules with documented pIC50 follow.

Before answering, review these 6 worked examples.
CC1(F)CC(NC(=O)c2ccc3c(c2)-c2cncn2CCO3)C1 (centres unmarked) [Compound 136A]: 8.00 to 9.00
O=C(Nc1cnc(OCCCF)nc1)c1ccc2c(c1)-c1cncn1CCO2 [Compound 102A]: 8.00 to 9.00
COCCO[C@H]1CC[C@H](NC(=O)c2cc3c(c(C(F)(F)F)c2)OCCn2cncc2-3)CC1 [Compound 55A]: > 9.00
CC(C)(N[C@H]1CC[C@H](NC(=O)c2ccc3c(c2)-c2cncn2CCO3)CC1)C(F)(F)F [Compound 88A]: > 9.00
O=C(N[C@H]1CC[C@H](NC2CCC2(F)F)CC1)c1ccc2c(c1)-c1cncn1CCO2 (some centres unmarked) [Compound 82A]: 8.00 to 9.00
COCCS(=O)(=O)N[C@H]1CC[C@H](NC(=O)c2ccc3c(c2)-c2cncn2CCO3)CC1 [Compound 29A]: 8.00 to 9.00

Query :: Consider the molecule shown here: CC1(C)CC(NC(=O)c2cc(F)c3c(c2)-c2cncn2CCO3)C1 [Compound 143A] What is its recorded pIC50?
Result :: > 9.00

Query :: // lookup pIC50 for COCCO[C@H]1CC[C@H](NC(=O)c2cc3c(c(F)c2F)OCCn2cncc2-3)CC1 [Compound 95A]
Result :: 8.00 to 9.00

Query :: // pIC50 lookup, key: CS(=O)(=O)CCCO[C@H]1CC[C@@H](NC(=O)c2ccc3c(c2)-c2cncn2CCO3)CC1 [Compound 86A]
Result :: < 7.00

Query :: Give the measured pIC50 of CC1COc2ccc(C(=O)N[C@@H]3CCCOC3)cc2-c2cncn21 (some centres unmarked) [Compound 68A] .
Result :: 7.00 to 8.00

Query :: What value of measured pIC50 is listed for CC1(C)COc2ccc(C(=O)N[C@@H]3CCCOC3)cc2-c2cncn21 [Compound 51A] ?
Result :: < 7.00

Query :: Which pIC50 value belongs to O=C(Nc1cnc(OCCC(F)(F)F)nc1)c1ccc2c(c1)-c1cncn1CCO2 [Compound 104A] ?
Result :: 8.00 to 9.00

Query :: Which pIC50 value belongs to O=C(N[C@H]1CC[C@H](N2CC(F)(F)C2)CC1)c1ccc2c(c1)-c1cncn1CCO2 [Compound 72A] ?
Result :: > 9.00

Query :: Look at this molecule and give its reported pIC50. O=C(NC1CC2(COC2)C1)c1cc(F)c2c(c1)-c1cncn1CCO2 [Compound 160A]
Result :: 8.00 to 9.00

Query :: Look at this molecule and give its reported pIC50. COCCNC(=O)[C@H]1CC[C@H](NC(=O)c2ccc3c(c2)-c2cncn2CCO3)CC1 [Compound 59A]
Result :: 8.00 to 9.00

Query :: Which pIC50 is reported for this molecule? O=C(N[C@H]1CC[C@@H](OCC(F)(F)F)CC1)c1cc(Cl)c2c(c1)-c1cncn1CCO2 [Compound 158A]
Result :: 8.00 to 9.00

Query :: So what's the measured pIC50 for this one? CC1(C)CC(NC(=O)c2ccc3c(c2)-c2cncn2CCO3)C1 [Compound 141A]
Result :: 8.00 to 9.00
